Test: Primary qHTS for inhibitors of nuclear receptor binding SET domain protein 2 (NSD2) in an RCH-ACV wild type WT cells (2C) (AID 1645877); note: nearly all actives have a fitted effect of over 70% in size
Conditions: RCH-ACV (leukaemia line) NSD2 WT (2C) viability, CellTiter-Glo, 72 h; series mostly up to 44.9 µM
Results filed as inconclusive are left out. Calls of active or inactive are those of the source. Calls come from the whole dose curve; as a rule, active = well fitted inhibition curve with a large enough effect; inconclusive = small, poorly fitted or top-dose-only effect; inactive = no such curve, though single readings can be large or run the other way.
The reply should be one of these categories: 1.0 for active, 0.0 for inactive

Example results:
Cc1[nH]c2ccccc2c1C1=C(NCCc2ccc(F)cc2)C(=O)N(C)C1=O ... 1.0
CC(=O)OC[C@H]1O[C@H](O[C@]2(CO)O[C@H](CO)[C@@H](OC(=O)/C=C/c3ccccc3)[C@@H]2O)[C@H](O)[C@@H](O)[C@@H]1O ... 0.0
CC1C(=O)CC2C3CCC(C(=O)O)C12CC3(C)CO (stereo not drawn) ... 0.0
C[C@@H]1C(=O)O[C@H]2[C@H](O)C34[C@H]5C[C@@H](C(C)(C)C)C36[C@@H](OC(=O)[C@@H]6O)O[C@@]4(C(=O)O5)[C@@]12O (stereo partly drawn) ... 0.0
O=C(/C=C\n1cnc(-c2cc(C(F)(F)F)cc(C(F)(F)F)c2)n1)N1CC(F)(F)C1 ... 1.0

State the result this test recorded for COc1cc(C(=O)OC[C@@]2(O)CO[C@@H](O[C@H]3[C@H](Oc4ccc(C(=O)O)cc4OC)O[C@H](CO)[C@@H](O)[C@@H]3O)[C@@H]2O)ccc1O .
0.0

State the result this test recorded for C[C@]12C[C@@H](O)[C@@H]3C[C@@]1(O[C@@H]1O[C@H](CO)[C@@H](O)[C@H](O)[C@H]1O)[C@]3(COC(=O)c1ccccc1)C(=O)O2 .
0.0

State the result this test recorded for CN(C)CCCCC(=O)Nc1ccc(NC(=S)NC(=O)c2ccc(C(C)(C)C)cc2)cc1 .
1.0

State the result this test recorded for O=C(Nc1ccccc1)N1CCN(Cc2ccc3ccccc3n2)CC1 .
0.0

State the result this test recorded for c1ccc(N2CCN(CCc3nn[nH]n3)CC2)cc1 .
0.0

State the result this test recorded for O=C(NCc1cccc(O)c1)Nc1nc(-c2ccncc2)cs1 .
1.0
